- TESTED ON: EGFR L858R/C797S (Homo sapiens, UniProt P00533, C797S/L858R)
- Sequence (P00533 25-1210 C797S/L858R): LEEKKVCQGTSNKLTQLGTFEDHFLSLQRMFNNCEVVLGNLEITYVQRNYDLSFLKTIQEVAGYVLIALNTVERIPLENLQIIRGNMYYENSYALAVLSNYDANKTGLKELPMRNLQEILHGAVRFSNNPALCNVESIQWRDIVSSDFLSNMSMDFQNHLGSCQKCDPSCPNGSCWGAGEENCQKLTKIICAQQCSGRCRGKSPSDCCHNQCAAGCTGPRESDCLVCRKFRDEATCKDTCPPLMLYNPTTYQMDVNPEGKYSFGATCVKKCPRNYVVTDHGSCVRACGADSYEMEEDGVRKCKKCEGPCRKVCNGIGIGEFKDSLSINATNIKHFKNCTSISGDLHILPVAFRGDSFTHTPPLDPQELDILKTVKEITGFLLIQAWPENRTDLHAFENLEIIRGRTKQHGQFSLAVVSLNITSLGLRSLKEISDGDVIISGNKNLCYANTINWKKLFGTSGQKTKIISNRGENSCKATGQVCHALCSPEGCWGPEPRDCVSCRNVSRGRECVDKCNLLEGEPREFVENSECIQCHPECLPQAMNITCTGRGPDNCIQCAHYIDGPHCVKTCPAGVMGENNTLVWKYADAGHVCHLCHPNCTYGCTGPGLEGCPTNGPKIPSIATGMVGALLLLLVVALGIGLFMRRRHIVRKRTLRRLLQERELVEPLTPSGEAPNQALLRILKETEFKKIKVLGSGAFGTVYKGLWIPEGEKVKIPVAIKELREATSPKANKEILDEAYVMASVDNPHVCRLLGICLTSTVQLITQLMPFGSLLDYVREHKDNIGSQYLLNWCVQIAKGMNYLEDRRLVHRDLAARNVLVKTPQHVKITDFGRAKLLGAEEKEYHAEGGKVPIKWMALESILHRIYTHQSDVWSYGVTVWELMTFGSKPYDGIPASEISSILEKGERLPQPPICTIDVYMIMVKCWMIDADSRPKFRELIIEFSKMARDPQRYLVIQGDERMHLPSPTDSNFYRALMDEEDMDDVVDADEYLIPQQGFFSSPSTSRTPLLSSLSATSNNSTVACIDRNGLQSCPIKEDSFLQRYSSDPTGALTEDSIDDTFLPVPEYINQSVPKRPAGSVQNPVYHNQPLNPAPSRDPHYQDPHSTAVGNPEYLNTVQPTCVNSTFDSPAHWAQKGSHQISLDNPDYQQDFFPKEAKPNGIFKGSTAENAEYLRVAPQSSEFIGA
- ASSAY NOTES: Biochemical EGFR kinase inhibition assay (Lance Ultra TR-FRET), double mutant L858R/C797S
- EXPERIMENTAL CONDITIONS: IC50 L858R/C797S (nM), 100 μM ATP
Classes (IC50): low band = under 40 nM, middle band = from 40 nM up to 100 nM, high band = 100 nM and over

{"MOLECULE": "O=S(=O)(C1CC1)n1cc(-c2nccc(Nc3cc(N4CCC(O)CC4)c(C#Cc4ccc(N5CCOCC5)nc4)cn3)n2)cn1", "ASSIGNED CLASS": "high band"}
{"MOLECULE": "Cn1cc(C#Cc2cnc(Nc3ccnc(Nc4ccccc4S(C)(=O)=O)n3)cc2N2CCC(C)(CO)CC2)cn1", "ASSIGNED CLASS": "high band"}
{"MOLECULE": "CC1(C#Cc2cnc(Nc3ccnc(-c4cnn(S(=O)(=O)C5CC5)c4)n3)cc2N[C@H]2CC[C@@H](CO)CC2)CC1", "ASSIGNED CLASS": "high band"}

Task: Where would `Cc1cnc(C#Cc2cnc(Nc3ccnc(-c4cnn(S(=O)(=O)C5CC5)c4)n3)cc2N[C@@H]2CCC[C@H](O)C2)cn1` land among the classes by reported IC50?
Output: high band

Task: For `O=S(=O)(C1CC1)n1cc(-c2nccc(Nc3cc(N[C@H]4CC[C@@H](O)CC4)c(C#CC4(O)CCOCC4)cn3)n2)cn1` , which IC50 bin applies?
Output: middle band

Task: Which category fits this record: `O=C(c1ccc(C#Cc2cnc(Nc3ccnc(-c4cnn(S(=O)(=O)C5CC5)c4)n3)cc2NC[C@H]2CC[C@H](CO)CC2)cc1)N1CCC(O)CC1`
Output: high band

---

- TESTED ON: EGFR Del19/C797S (Homo sapiens, UniProt P00533, C797S/DEL746-750)
- Sequence (P00533 with tags, fused parts or gaps DEL746-750/C797S): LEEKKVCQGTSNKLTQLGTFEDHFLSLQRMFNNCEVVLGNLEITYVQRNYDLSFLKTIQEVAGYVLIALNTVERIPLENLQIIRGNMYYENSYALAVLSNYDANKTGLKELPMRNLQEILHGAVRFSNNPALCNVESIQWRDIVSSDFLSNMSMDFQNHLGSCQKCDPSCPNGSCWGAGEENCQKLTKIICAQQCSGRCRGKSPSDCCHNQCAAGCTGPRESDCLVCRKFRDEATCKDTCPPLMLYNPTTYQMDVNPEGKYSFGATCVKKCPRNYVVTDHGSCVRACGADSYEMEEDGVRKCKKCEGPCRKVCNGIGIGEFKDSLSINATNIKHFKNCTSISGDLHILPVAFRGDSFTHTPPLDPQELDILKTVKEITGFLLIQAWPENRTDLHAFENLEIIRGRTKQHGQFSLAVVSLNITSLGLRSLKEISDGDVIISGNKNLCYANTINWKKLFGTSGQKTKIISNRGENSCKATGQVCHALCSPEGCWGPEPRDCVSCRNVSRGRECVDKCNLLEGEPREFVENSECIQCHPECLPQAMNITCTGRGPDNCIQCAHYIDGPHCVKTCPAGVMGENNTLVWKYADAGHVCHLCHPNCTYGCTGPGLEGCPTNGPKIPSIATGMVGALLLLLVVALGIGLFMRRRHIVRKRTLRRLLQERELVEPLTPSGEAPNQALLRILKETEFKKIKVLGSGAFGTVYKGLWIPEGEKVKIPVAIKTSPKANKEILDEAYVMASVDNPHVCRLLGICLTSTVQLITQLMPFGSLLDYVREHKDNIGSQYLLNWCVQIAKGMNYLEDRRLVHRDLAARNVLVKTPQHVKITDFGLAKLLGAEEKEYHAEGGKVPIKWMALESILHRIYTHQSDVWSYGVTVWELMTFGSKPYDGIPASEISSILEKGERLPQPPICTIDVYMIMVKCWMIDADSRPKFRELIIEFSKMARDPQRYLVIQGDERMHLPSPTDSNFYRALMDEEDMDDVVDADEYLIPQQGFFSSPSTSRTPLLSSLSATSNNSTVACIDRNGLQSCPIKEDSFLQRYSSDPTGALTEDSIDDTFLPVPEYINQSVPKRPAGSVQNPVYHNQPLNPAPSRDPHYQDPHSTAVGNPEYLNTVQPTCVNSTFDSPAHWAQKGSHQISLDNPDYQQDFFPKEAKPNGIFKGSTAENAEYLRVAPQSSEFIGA
- ASSAY NOTES: Biochemical EGFR kinase inhibition assay (Lance Ultra TR-FRET), double mutant del19/C797S
- EXPERIMENTAL CONDITIONS: IC50 Del19/C797S (nM), 100 μM ATP
Please use the following IC50 ranges when assigning a class: low group: < 4 nM; middle group: ≥ 4 nM and < 10 nM; high group: ≥ 10 nM

{"COMPOUND": "CC1(CO)CCN(c2cc(Nc3ccnc(-c4cnn(CC(F)F)c4)n3)ncc2C#Cc2cnn(C(F)(F)F)c2)CC1", "TESTED ON": "EGFR Del19/C797S (Homo sapiens, UniProt P00533, C797S/DEL746-750)", "ASSIGNED CLASS": "high group"}

Task: Looking at Cn1cc(C#Cc2cnc(Nc3ccnc(-c4cnn(S(=O)(=O)C5CC5)c4)n3)cc2N2CCCC(F)C2)cn1 (stereo not shown) , which class would you pick?
Output: high group

Task: Into which bin does this compound go? `CN(C)CCNC1CCN(c2cc(Nc3ccnc(-c4cnn(S(=O)(=O)C5CC5)c4)n3)ncc2C#Cc2cnn(C)c2)CC1`
Output: low group

Task: For this compound, which bin applies? `CC1(CO)CCN(c2cc(Nc3ccnc(-c4cnn(S(=O)(=O)C5CC5)c4)n3)ncc2C#CC2(O)CCC2)CC1`
Output: low group

Task: Into which category would you place `CC1(CO)CCN(c2cc(Nc3ccnc(-c4cnn(S(=O)(=O)C5CC5)c4)n3)ncc2C#Cc2cccc(C(=O)N3CCOCC3)n2)CC1` ?
Output: low group

Task: Where would `Cn1cc(C#Cc2cnc(Nc3ccnc(-c4cnn(S(=O)(=O)C5CC5)c4)n3)cc2N2CCC(=O)CC2)cn1` land among the classes by reported IC50?
Output: high group
